# ASSAY_TARGET: recombinant human 5-HT6 receptor (Homo sapiens, UniProt P50406)
# Construct: cell membranes used
# Sequence (P50406 whole entry): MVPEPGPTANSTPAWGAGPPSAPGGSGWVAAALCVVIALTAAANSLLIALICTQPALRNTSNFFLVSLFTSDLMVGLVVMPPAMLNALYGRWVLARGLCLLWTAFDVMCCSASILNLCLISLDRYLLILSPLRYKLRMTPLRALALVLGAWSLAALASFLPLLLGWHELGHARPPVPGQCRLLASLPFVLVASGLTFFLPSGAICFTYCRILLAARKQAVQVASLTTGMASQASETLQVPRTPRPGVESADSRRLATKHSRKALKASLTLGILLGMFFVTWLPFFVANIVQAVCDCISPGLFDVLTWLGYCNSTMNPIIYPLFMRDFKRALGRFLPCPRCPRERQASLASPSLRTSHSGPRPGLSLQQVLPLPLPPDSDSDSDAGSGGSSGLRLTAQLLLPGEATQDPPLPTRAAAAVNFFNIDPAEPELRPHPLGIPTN
# TEST: Radioligand binding studies: competition for [3H]LSD binding in membranes of HEK293 cells
# CONDITIONS_USED: [3H]LSD (5 nM), HEK293 cell membranes, 60 min at 37° C., pH 7.4
// reported pKi per item
Please express pKi as -log10 of the molar concentration.

Answered cases to consult:
[
  {
    "SMILES": "CCS(=O)(=O)c1cccc(S(=O)(=O)n2ccc3c(N4CCNCC4)cccc32)c1",
    "ASSAY_TARGET": "recombinant human 5-HT6 receptor (Homo sapiens, UniProt P50406)",
    "pKi": 8.81
  },
  {
    "SMILES": "CS(=O)(=O)c1ccc(F)c(S(=O)(=O)n2ccc3c(N4CCNCC4)cccc32)c1",
    "ASSAY_TARGET": "recombinant human 5-HT6 receptor (Homo sapiens, UniProt P50406)",
    "pKi": 7.86
  },
  {
    "SMILES": "O=S(=O)(c1cccc(Cl)c1)n1ccc2c(N3CCNCC3)cccc21",
    "ASSAY_TARGET": "recombinant human 5-HT6 receptor (Homo sapiens, UniProt P50406)",
    "pKi": 9.96
  },
  {
    "SMILES": "CS(=O)(=O)c1ccccc1S(=O)(=O)n1ccc2c(N3CCNCC3)cccc21",
    "ASSAY_TARGET": "recombinant human 5-HT6 receptor (Homo sapiens, UniProt P50406)",
    "pKi": 7.78
  }
]

Next compound, please.
Ask: Would you mind telling me what pKi value was observed for "COc1ccc(S(=O)(=O)n2ccc3c(N4CCNCC4)cccc32)cc1" ?
Result: 9.35
